- Target: c-Met (Homo sapiens, UniProt P08581)
- Sequence (P08581 25-1390): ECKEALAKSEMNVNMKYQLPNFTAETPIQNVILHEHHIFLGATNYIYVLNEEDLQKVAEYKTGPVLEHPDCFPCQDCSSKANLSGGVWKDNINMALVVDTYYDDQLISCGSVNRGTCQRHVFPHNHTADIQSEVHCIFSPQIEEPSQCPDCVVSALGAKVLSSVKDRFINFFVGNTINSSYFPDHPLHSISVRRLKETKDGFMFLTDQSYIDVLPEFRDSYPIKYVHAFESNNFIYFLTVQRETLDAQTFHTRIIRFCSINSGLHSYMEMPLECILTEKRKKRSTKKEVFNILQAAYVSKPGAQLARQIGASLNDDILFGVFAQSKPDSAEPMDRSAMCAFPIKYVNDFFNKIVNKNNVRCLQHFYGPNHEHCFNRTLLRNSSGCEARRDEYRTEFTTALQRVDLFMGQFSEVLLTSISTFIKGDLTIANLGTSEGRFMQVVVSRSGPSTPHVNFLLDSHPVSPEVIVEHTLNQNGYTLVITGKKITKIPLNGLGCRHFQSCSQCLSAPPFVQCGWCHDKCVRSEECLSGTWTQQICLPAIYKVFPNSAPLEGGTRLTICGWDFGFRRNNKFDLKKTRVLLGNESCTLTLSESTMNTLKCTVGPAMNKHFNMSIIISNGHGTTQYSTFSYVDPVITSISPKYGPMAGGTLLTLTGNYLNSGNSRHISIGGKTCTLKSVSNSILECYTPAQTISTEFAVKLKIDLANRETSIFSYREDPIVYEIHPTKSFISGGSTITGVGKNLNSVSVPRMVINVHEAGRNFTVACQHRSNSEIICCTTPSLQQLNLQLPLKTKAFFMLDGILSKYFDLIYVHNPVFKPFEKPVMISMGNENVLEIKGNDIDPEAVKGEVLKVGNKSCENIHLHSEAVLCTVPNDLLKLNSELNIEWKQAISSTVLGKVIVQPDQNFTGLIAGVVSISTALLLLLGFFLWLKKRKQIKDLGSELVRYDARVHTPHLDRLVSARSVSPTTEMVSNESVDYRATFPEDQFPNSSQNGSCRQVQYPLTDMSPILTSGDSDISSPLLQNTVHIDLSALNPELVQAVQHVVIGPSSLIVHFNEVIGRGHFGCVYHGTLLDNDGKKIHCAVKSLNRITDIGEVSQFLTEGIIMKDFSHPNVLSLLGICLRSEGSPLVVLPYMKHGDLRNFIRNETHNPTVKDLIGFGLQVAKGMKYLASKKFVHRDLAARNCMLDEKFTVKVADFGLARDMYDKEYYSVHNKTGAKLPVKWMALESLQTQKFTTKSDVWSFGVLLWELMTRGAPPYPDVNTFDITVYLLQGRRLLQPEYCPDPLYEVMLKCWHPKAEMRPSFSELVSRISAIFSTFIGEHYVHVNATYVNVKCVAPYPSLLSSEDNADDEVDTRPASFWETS
- Experiment description: Ki determination for the inhibition of c-Met kinase activity (standard coupled enzyme system)
- Format: biochemical
- Experimental context: coupled enzyme system, 200 μM ATP, 10 μM polyGluTyr, 80 nM c-Met, 30° C.; read-out: c-Met Ki
pKi: −log10 of the molar value.
Measured quantity: pKi

Please review the entries below; each comes with its answer.
| Chem smiles | pKi |
| --- | --- |
| CN(C)c1ccc(Nc2nn3c(Cc4ccc5c(c4)OCO5)nnc3s2)cc1 | 5.70 to 7.00 |
| OCCc1cccc(Nc2ccc3nnc(Cc4ccc(O)cc4)n3n2)c1 | > 7.00 |
| Oc1ccc(Cc2nnc3ccc(Cl)nn23)cc1 | 5.70 to 7.00 |
| Nc1nn2c(Cc3ccc(OCc4ccccc4)cc3)nnc2s1 | < 5.70 |
| COc1ccc(Cc2nnc3ccc(-c4ccccc4)nn23)cc1OC | < 5.70 |
| Clc1cc(Cl)cc(Nc2ccc3nnc(Cc4ccncc4)n3n2)c1 | 5.70 to 7.00 |

The measured pKi associated with c1csc(Cc2nn3c(Cc4ccc5c(c4)OCO5)nnc3s2)c1 reads < 5.70

The measured pKi associated with Cc1cc(Nc2ccc3nnc(Cc4ccc(O)cc4)n3n2)ccc1Cl reads > 7.00

The measured pKi associated with COc1ccc(CNc2ccc3nnc(Cc4ccc(O)cc4)n3n2)cc1 reads 5.70 to 7.00
